Values were extracted from patent US20180037631A1.

# maps each entry to its IC50
target: T1, EGFR on the surface of human tumour cells (A431, H292) (human, UniProt P00533 25-1210)
T1 construct: whole, on cells; also called EGF receptor
// units = nM; emit number, no label

Just so you know, measured IC50 for E3-GS10-I1, non-pegylated (designed binder) VSDVPRDLEVVAATPTSLLISWLPGKLRYQYYRITYGETGGNSPVQEFTVPHDLRTATISGLKPGVDYTITVYAVTNMMHVEYSEYPISINYRTEIDKGSGSGSGSGSGSGSGSGSGSVSDVPRDLEVVAATPTSLLISWSARLKVARYYRITYGETGGNSPVQEFTVPKNVYTATISGLKPGVDYTITVYAVTRFRDYQPISINYRTEIDKPSQ came out at 25

Continuing:
Just so you know, measured IC50 for E3-GS10-I1 pegylated, His-tagged (designed binder, 40 kDa branched PEG on the Cys of the C-terminal Cys tail, also called E3-GS10-I1-Cys (with his)) MGVSDVPRDLEVVAATPTSLLISWLPGKLRYQYYRITYGETGGNSPVQEFTVPHDLRTATISGLKPGVDYTITVYAVTNMMHVEYSEYPISINYRTEIDKGSGSGSGSGSGSGSGSGSGSVSDVPRDLEVVAATPTSLLISWSARLKVARYYRITYGETGGNSPVQEFTVPKNVYTATISGLKPGVDYTITVYAVTRFRDYQPISINYRTEIDKPCQHHHHHH came out at 80.5

Just so you know, measured IC50 for E1-GS10-I1, His-tagged, non-pegylated (designed binder, bispecific EGFR/IGF-IR tandem of two 10Fn3 domains) MGVSDVPRDLEVVAATPTSLLISWVAGAEDYQYYRITYGETGGNSPVQEFTVPHDLVTATISGLKPGVDYTITVYAVTDMMHVEYTEHPISINYRTEIDKGSGSGSGSGSGSGSGSGSGSVSDVPRDLEVVAATPTSLLISWSARLKVARYYRITYGETGGNSPVQEFTVPKNVYTATISGLKPGVDYTITVYAVTRFRDYQPISINYRTEIDKPSQHHHHHH came out at 51

Just so you know, measured IC50 for E1-GS10-I1 pegylated, His-tagged (designed binder, 40 kDa branched PEG on the Cys of the C-terminal Cys tail, also called E1-GS10-I1 (with PEG)) MGVSDVPRDLEVVAATPTSLLISWVAGAEDYQYYRITYGETGGNSPVQEFTVPHDLVTATISGLKPGVDYTITVYAVTDMMHVEYTEHPISINYRTEIDKGSGSGSGSGSGSGSGSGSGSVSDVPRDLEVVAATPTSLLISWSARLKVARYYRITYGETGGNSPVQEFTVPKNVYTATISGLKPGVDYTITVYAVTRFRDYQPISINYRTEIDKPCQHHHHHH came out at 396
